[
  {
    "query smiles": "Cc1cnc(-c2cc(-c3ccccc3)c(N3CCOCC3)s2)cc1OCC(F)(F)F",
    "melting point": "145 to 147 °C"
  },
  {
    "query smiles": "Cc1ccc(C(=O)Nc2nc(-c3ccccc3)c(-c3nc4ccccc4c(=O)n3-c3ccc(Cl)cc3)s2)cc1",
    "melting point": "> 275 °C"
  },
  {
    "query smiles": "COc1ccc(-n2c(-c3cc(-c4ccc(Cl)cc4)c(N4CCOCC4)s3)nc3ccccc3c2=O)cc1",
    "melting point": "217 to 218 °C"
  },
  {
    "query smiles": "CNc1nc(-c2ccccc2)c(-c2nc3ccccc3c(=O)n2-c2ccccc2)s1",
    "melting point": "224 to 225 °C"
  },
  {
    "query smiles": "CC(=O)c1ccc(-n2c(-c3sc(NC(=O)c4ccccc4)nc3-c3ccccc3)nc3ccccc3c2=O)cc1",
    "melting point": "250 to 252 °C"
  },
  {
    "query smiles": "COc1cccc(-n2c(-c3sc(Nc4ccc(Cl)cc4)nc3C)nc3ccccc3c2=O)c1",
    "melting point": "243 to 244 °C"
  },
  {
    "query smiles": "COc1ccccc1-n1c(-c2cc(-c3ccc(Cl)cc3)c(N3CCOCC3)s2)nc2ccccc2c1=O",
    "melting point": "216 to 217 °C"
  },
  {
    "query smiles": "COC(=O)Nc1nc(-c2ccccc2)c(-c2nc3ccccc3c(=O)n2-c2ccccc2C)s1",
    "melting point": "> 275 °C"
  },
  {
    "query smiles": "Cc1ccccc1-n1c(-c2sc(NC(=O)c3ccccc3)nc2-c2ccccc2)nc2ccccc2c1=O",
    "melting point": "> 275 °C"
  },
  {
    "query smiles": "COc1cccc(-n2c(-c3sc(NC(=O)c4ccccc4)nc3-c3ccccc3)nc3ccccc3c2=O)c1",
    "melting point": "195 to 196 °C"
  },
  {
    "query smiles": "COc1cccc(-n2c(-c3cc(-c4ccccc4)c(N4CCOCC4)s3)nc3ccccc3c2=O)c1",
    "melting point": "269 to 272 °C"
  },
  {
    "query smiles": "Cc1ccccc1-n1c(-c2sc(Nc3ccccc3)nc2-c2ccccc2)nc2ccccc2c1=O",
    "melting point": "141 to 143 °C"
  },
  {
    "query smiles": "COC(=O)Nc1nc(-c2ccccc2)c(-c2nc3ccccc3c(=O)n2-c2ccccc2Cl)s1",
    "melting point": "> 275 °C"
  },
  {
    "query smiles": "CC(=O)c1ccc(-n2c(-c3sc(Nc4ccccc4)nc3C)nc3ccccc3c2=O)cc1",
    "melting point": "271 to 273 °C"
  },
  {
    "query smiles": "CNc1nc(C)c(-c2nc3ccccc3c(=O)n2-c2cccc(C)c2)s1",
    "melting point": "> 275 °C"
  },
  {
    "query smiles": "Cc1cccc(-n2c(-c3cc(-c4ccccc4)c(N4CCOCC4)s3)nc3ccccc3c2=O)c1",
    "melting point": "194 to 196 °C"
  },
  {
    "query smiles": "COC(=O)Nc1nc(-c2ccccc2)c(-c2nc3ccccc3c(=O)n2-c2ccc(C)cc2)s1",
    "melting point": "> 275 °C"
  },
  {
    "query smiles": "COc1ccc(-n2c(-c3sc(Nc4ccccc4)nc3C)nc3ccccc3c2=O)cc1",
    "melting point": "265 to 266 °C"
  },
  {
    "query smiles": "COc1ccc(Nc2nc(NC(=O)Nc3ccc(F)cc3)c(-c3cc(C)c(OCC(F)(F)F)cn3)s2)cc1",
    "melting point": "> 280 °C"
  },
  {
    "query smiles": "Cc1ccc(-n2c(-c3sc(Nc4ccccc4)nc3-c3ccccc3)nc3ccccc3c2=O)cc1",
    "melting point": "225 to 228 °C"
  },
  {
    "query smiles": "COC(=O)Nc1nc(-c2ccccc2)c(-c2nc3ccccc3c(=O)n2-c2cccc(C)c2)s1",
    "melting point": "268 to 269 °C"
  },
  {
    "query smiles": "CNc1nc(-c2ccccc2)c(-c2nc3ccccc3c(=O)n2-c2cccc(C)c2)s1",
    "melting point": "186 to 187 °C"
  },
  {
    "query smiles": "Cc1ccc(-n2c(-c3sc(NC(=O)c4ccccc4)nc3-c3ccccc3)nc3ccccc3c2=O)cc1",
    "melting point": "> 275 °C"
  },
  {
    "query smiles": "Cc1cccc(-n2c(-c3sc(Nc4ccc(Cl)cc4)nc3C)nc3ccccc3c2=O)c1",
    "melting point": "236 to 238 °C"
  },
  {
    "query smiles": "CNc1nc(-c2ccccc2)c(-c2nc3ccccc3c(=O)n2-c2ccc(OC)cc2)s1",
    "melting point": "235 to 236 °C"
  },
  {
    "query smiles": "Cc1cccc(-n2c(-c3cc(-c4ccc(Cl)cc4)c(N4CCOCC4)s3)nc3ccccc3c2=O)c1",
    "melting point": "228 to 230 °C"
  },
  {
    "query smiles": "CC(=O)c1ccc(-n2c(-c3sc(NC(=O)c4ccc(C)cc4)nc3-c3ccccc3)nc3ccccc3c2=O)cc1",
    "melting point": "266 to 267 °C"
  },
  {
    "query smiles": "COc1ccccc1-n1c(-c2sc(Nc3ccccc3)nc2C)nc2ccccc2c1=O",
    "melting point": "169 to 170 °C"
  },
  {
    "query smiles": "Cc1ccccc1-n1c(-c2cc(-c3ccncc3)c(N3CCOCC3)s2)nc2ccccc2c1=O",
    "melting point": "208 to 210 °C"
  },
  {
    "query smiles": "Cc1nc(Nc2ccccc2)sc1-c1nc2ccccc2c(=O)n1-c1ccccc1Cl",
    "melting point": "228 to 229 °C"
  },
  {
    "query smiles": "CNc1nc(-c2ccccc2)c(-c2nc3ccccc3c(=O)n2-c2ccccc2C)s1",
    "melting point": "220 to 225 °C"
  },
  {
    "query smiles": "CCOC(=O)Nc1nc(-c2ccccc2)c(-c2nc3ccccc3c(=O)n2-c2cccc(C)c2)s1",
    "melting point": "261 to 263 °C"
  }
]

All values here come from patent US8829014B2.
